The reported numbers originate from ChEMBL document CHEMBL1154736.

Target: Voltage-gated inwardly rectifying potassium channel KCNH2 (Homo sapiens, UniProt Q12809, S624A)
Test: Inhibition of human recombinant ERG S624A mutant expressed in CHOK1 cells by whole-cell plate-based electrophysiology
Conditions: cho-k1
Assay metric: delta pIC50 wt-mutant

| Compound | Value observed |
| --- | --- |
| COc1ccccc1Oc1ccccc1CN1CCC2(CC1)CCN(C(=O)c1ccc[nH]c1=O)CC2 | 0.54 |
| CC1(C)CCc2cc(CN3CCC4(CC3)CCN(C(=O)c3ccncn3)CC4)ccc2O1 | 0.74 |
| O=C(c1ccncc1)N1CCC2(CCN(Cc3ccccc3OC(F)(F)C(F)F)CC2)CC1 | 0.11 |
| CC1(C)Cc2cccc(CN3CCC4(CC3)CCN(C(=O)c3ncccc3N)CC4)c2O1 | 1.32 |
| CC1Cc2cccc(CN3CCC4(CC3)CCN(C(=O)c3ccncc3)CC4)c2O1 (stereo not given) | 0.61 |
